# Tested on: U2OS-LMNB1-TUBA1B-ACTB
# protocol-notes: cell count relative to DMSO control (panel C1, DRAQ5/ER stain) (fraction of control); higher = more cells (less toxicity)
# test-context: 1.25 µM; treatment time: 24 h
Returns true if the recorded cell count is greater than or equal to 0.9, and false otherwise.

Query :: Is cell count at least 0.9? Consider COc1ccc(C[C@H]2NC[C@H](O)[C@H]2OC(C)=O)cc1
Result :: false

Query :: Similarly, CC(=O)N[C@H]1[C@@H](O[C@@H]2O[C@H](CC(O)[C@H]3O[C@@H](n4ccc(=O)[nH]c4=O)[C@H](O)[C@@H]3O)[C@H](O)[C@H](O)[C@H]2NC(=O)/C=C/CC(C)C)O[C@H](CO)[C@@H](N)[C@@H]1O (stereo partly specified) ?
Result :: false

Query :: Next molecule: NCCCCC(N)C(=O)NC(CCCCN)C(=O)NC(Cc1c[nH]c2ccccc12)C(=O)NC(Cc1c[nH]c2ccccc12)C(=O)NC(CCCCN)C(=O)NC(CCCCN)C(=O)NC(Cc1c[nH]c2ccccc12)C(=O)NC(C(=O)NC(CCCCN)C(N)=O)C(c1ccccc1)c1ccccc1 (stereo unspecified)
Result :: true

Query :: Thanks! And CO[C@@]12[C@H](COC(N)=O)C3=C(C(=O)C(C)=C(N)C3=O)N1C[C@@H]1N[C@@H]12 ?
Result :: false

Query :: Okay, and Cc1[nH]c2ccccc2c1CCNC(=O)c1cccs1 ?
Result :: true

Query :: Repeat for the following molecule: Cc1ccc(S(=O)(=O)c2ccc([N+](=O)[O-])o2)cc1
Result :: true

----------
# Test system: U2OS
# protocol-notes: cell count relative to DMSO control (panel A, nuclei/RNA/PMG/mitochondria stain) (fraction of control); higher = more cells (less toxicity)
# test-context: 0.07812 µM; treatment time: 24 h
readout-type: cell count
Kindly provide the number alone.

Query :: // map CN(Cc1cnc2nc(N)nc(N)c2n1)c1ccc(C(=O)N[C@@H](CCC(=O)O)C(=O)O)cc1 [methotrexate] to recorded cell count (system: U2OS)
Result :: 0.782

Query :: Again, but for COc1cccc2c1C(=O)c1c(O)c3c(c(O)c1C2=O)C[C@@](O)(C(C)=O)C[C@@H]3O[C@H]1C[C@H](N)[C@H](O)[C@H](C)O1 [daunorubicin]
Result :: 0.92

Query :: Would you mind doing CC(C)n1nc(-c2ccc3oc(N)nc3c2)c2c(N)ncnc21 [MLN0128] as well?
Result :: 0.646

Query :: C=CCNC1=C2C[C@@H](C)C[C@H](OC)[C@H](O)[C@@H](C)/C=C(\C)[C@H](OC(N)=O)[C@@H](OC)/C=C\C=C(/C)C(=O)NC(=CC1=O)C2=O [tanespimycin] ?
Result :: 1

Query :: Same again, this time with COc1cccc2c1C(=O)c1c(O)c3c(c(O)c1C2=O)C[C@@](O)(C(=O)CO)C[C@@H]3O[C@H]1C[C@H](N)[C@H](O)[C@H](C)O1 [doxorubicin]
Result :: 0.933

Query :: C[C@H]1O[C@@H](O[C@H]2[C@@H](O)C[C@H](O[C@H]3[C@@H](O)C[C@H](O[C@H]4CC[C@@]5(C)[C@H](CC[C@@H]6[C@@H]5CC[C@]5(C)[C@@H](C7=CC(=O)OC7)CC[C@]65O)C4)O[C@@H]3C)O[C@@H]2C)C[C@H](O)[C@@H]1O [digitoxin] ?
Result :: 1.07

Query :: Now try CC(=O)N[C@H]1[C@@H](O[C@@H]2O[C@H](CC(O)[C@H]3O[C@@H](n4ccc(=O)[nH]c4=O)[C@H](O)[C@@H]3O)[C@H](O)[C@H](O)[C@H]2NC(=O)/C=C/CC(C)C)O[C@H](CO)[C@@H](N)[C@@H]1O (stereo not given in full) [tunicamycin] .
Result :: 0.979

Query :: Cool, now CO[C@H]1C[C@@H]2CC[C@@H](C)[C@@](O)(O2)C(=O)C(=O)N2CCCC[C@H]2C(=O)O[C@H]([C@H](C)C[C@@H]2CC[C@@H](OP(C)(C)=O)[C@H](OC)C2)CC(=O)[C@H](C)/C=C(\C)[C@@H](O)[C@@H](OC)C(=O)[C@H](C)C[C@H](C)/C=C/C=C/C=C/1C [deforolimus]
Result :: 0.964

Query :: Repeat for the following compound: COc1ccc(C[C@H](N)C(=O)N[C@H]2[C@@H](O)[C@H](n3cnc4c(N(C)C)ncnc43)O[C@@H]2CO)cc1 [puromycin]
Result :: 1.06

Query :: Same question for O=C1c2c(O)ccc(O)c2C(=O)c2c(NCCNCCO)ccc(NCCNCCO)c21 [mitoxantrone] please.
Result :: 0.956
